For each of the molecules below, state its pIC50.
assayed_target: Urease subunit alpha/Urease subunit beta (Helicobacter pylori (strain ATCC 700392 / 26695) (Campylobacterpylori), UniProt P69996)
Sequence (P69996 whole entry): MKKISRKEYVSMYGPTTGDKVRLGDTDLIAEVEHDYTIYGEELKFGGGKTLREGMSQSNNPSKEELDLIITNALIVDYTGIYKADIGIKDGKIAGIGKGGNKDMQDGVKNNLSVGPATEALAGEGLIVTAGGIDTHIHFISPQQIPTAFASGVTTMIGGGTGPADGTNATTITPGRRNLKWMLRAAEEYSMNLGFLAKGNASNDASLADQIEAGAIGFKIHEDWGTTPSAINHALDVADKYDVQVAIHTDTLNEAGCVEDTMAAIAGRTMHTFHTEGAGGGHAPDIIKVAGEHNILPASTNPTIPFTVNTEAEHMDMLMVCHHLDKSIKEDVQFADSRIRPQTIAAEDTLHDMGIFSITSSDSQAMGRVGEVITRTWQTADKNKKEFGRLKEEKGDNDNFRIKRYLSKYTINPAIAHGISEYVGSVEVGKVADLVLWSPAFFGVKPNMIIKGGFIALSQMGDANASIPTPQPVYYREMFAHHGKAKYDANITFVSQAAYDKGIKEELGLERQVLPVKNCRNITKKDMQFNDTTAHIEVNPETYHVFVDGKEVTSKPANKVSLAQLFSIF
Sequence (P14916 whole entry, further chain): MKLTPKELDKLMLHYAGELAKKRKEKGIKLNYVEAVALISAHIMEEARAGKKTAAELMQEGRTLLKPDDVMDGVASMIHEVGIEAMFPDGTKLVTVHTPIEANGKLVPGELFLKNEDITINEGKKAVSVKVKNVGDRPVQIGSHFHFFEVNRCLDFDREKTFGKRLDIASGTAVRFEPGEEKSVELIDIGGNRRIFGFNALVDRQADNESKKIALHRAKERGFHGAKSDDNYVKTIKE
assay: Inhibition of Helicobacter pylori urease assessed as ammonia production preincubated for 3 hrs measured by indophenol method
Lab note — pIC50 values are minus log10 of concentrations in M.

Query: Complete the entry with pIC50 for `O=C1C=C(NCCN2CCOCC2)C(=O)C=C1NCCN1CCOCC1`
Response: 4.56

Query: Complete the entry with pIC50 for `O=C1C=C(NC2CCCC2)C(=O)C=C1NC1CCCC1`
Response: 4.45

Query: Complete the entry with pIC50 for `O=C1C=C(NC2CCCCC2)C(=O)C=C1NC1CCCCC1`
Response: 4.38

Query: Complete the entry with pIC50 for CC(=O)NO [ACETOHYDROXAMIC ACID]
Response: 4.33
